PROCEDURE SUMMARY: Cell viability and proliferation assay (WST8/CCK-8)
Assay type: cell-based
APPLIED CONDITIONS: African green monkey, Vero cells (ATCC CCL-81), 48 h treatment, CCK-8; read-out: CC50 [95% CI] Vero cells
QUANTITY KIND: CC50 at 48 h (µM)
Give the quantity in µM, number only.

compound="C#CCOc1ccc(C(=O)/C=C/c2ccc[n+](CCCCCCCCCCCCCCCCCC)c2)c(OCC#C)c1 [Compound 8]" assay_result=5.73

// CC50 at 48 h lookup, key: C#CCOc1ccc(C(=O)/C=C/c2ccc[n+](CCCCCCCCCCCC)c2)c(OCC#C)c1.[Br-] [Compound 5]
14

// CC50 at 48 h lookup, key: C#CCOc1ccc(C(=O)/C=C/c2ccc[n+](CCCCCCCCCC)c2)c(OCC#C)c1.[Br-] [Compound 4]
12.8

// CC50 at 48 h lookup, key: COc1cccc2c1C(=O)c1c(O)c3c(c(O)c1C2=O)C[C@@](O)(C(=O)CO)C[C@@H]3O[C@H]1C[C@H](N)[C@H](O)[C@H](C)O1 [DOX, doxorubicin, reference compound]
70.6

// CC50 at 48 h lookup, key: C#CCOc1ccc(C(=O)/C=C/c2ccc[n+](CCCCCCCCCCCCCCCC)c2)c(OCC#C)c1 [Compound 7]
5.38

// CC50 at 48 h lookup, key: C#CCOc1ccc(C(=O)/C=C/c2ccc[n+](CCCCCCCC)c2)c(OCC#C)c1 [Compound 3]
47

// CC50 at 48 h lookup, key: C#CCOc1ccc(C(=O)/C=C/c2ccc[n+](CCCCCCCCCCCCCC)c2)c(OCC#C)c1.[Br-] [Compound 6]
6.16

These measurements were taken from paper PMC12066977.
